System: H1975 (EGFR mut) cells
Assay: CellTiter-Glo in vitro cell proliferation assay, Example 8
Type: cell-based, Human
Settings: NSCLC, read-out: Mean IC50
readout-kind: pIC50
pIC50 here is simply -log10 of the concentration when that concentration is written in mol/L.

# smiles-code, pIC50
records = [
    ("CCOc1cc(C(CC2=NCCc3c2[nH]c2cc(OC)ccc32)CC2=NCCc3c2[nH]c2cc(OC)ccc32)ccc1O", 4.71),
    ("COc1ccc2c3c([nH]c2c1)C(CC(CC1=NCCc2c1[nH]c1cc(OC)ccc21)c1ccc(OC)c(Oc2ccccc2)c1)=NCC3", 4.19),
]

Assay H1975 (EGFR mut) cells, sample COc1ccc2c3c([nH]c2c1)C(CC(CC1=NCCc2c1[nH]c1cc(OC)ccc21)c1cc(F)cc(F)c1)=NCC3 , pIC50 read: 4.94
